target: HLA-A*6802 (human); test: competition with 125I-labelled standard peptide on purified HLA, gel filtration; details: remark: other sources report otherwise
pIC50: −log10 of the molar value.
READOUT_LABEL: pIC50

Some entries whose results are on file:
LLARAASLSV (modifications not checked) [peptide 63.0031 … (PAP.7.V10)] : 6.14
TLMSAMTNLA (modifications not checked) [peptide 20.0312 … (PAP.112)] : 5.18

1: SLLAKELKFV (modifications not checked) [peptide 63.0033 … (PAP.29.L2)]
2: VLAKELKFVV (modifications not checked) [peptide 63.0034 … (PAP.30.V10)]
Request: # argmax over pIC50 for candidates 1 and 2 Could you answer with the label of the item you picked?
Result: 2
(2: 5.64, 1: 5.18)

The values you see were collected from patent US20070020327A1.
